biological target: Carboanhydrase IX (Homo sapiens, UniProt Q16790 38-459); experiment: cell-based or functional assay
measurement-kind: EC50 (nM) HT29
Give the value, in units of nM, as a plain number.

// query EC50 (nM) HT29 value for entry Example 296 (antibody, human IgG1, kappa, V domains shown, linker-toxophore on cysteine S) VH: QVELVESGGGLVQPGGSLRLSCAASGFTFSSYGMSWVRQAPGKGLEWVSGISSLGSTTYYADSVKGRFTISRDNSKNTLYLQMNSLRAEDTAVYYCARTGSPGTFMHGDHWGQGTLVTVSS VL: DIQMTQSPSSLSASVGDRVTITCRASQDINNYLSWYQQKPGKAPKLLIYGASNLQSGVPSRFSGSGSGTDFTLTISSLQPEDFAVYYCQQYYGRPTTFGQGTKVEIKR
0.4
